B1: tRNA (parent)
chain: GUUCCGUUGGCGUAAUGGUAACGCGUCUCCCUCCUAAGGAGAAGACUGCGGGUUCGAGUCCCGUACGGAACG

Variants of: B1
Experiment: yeast fitness relative to wild type (ratio to wild type); higher = fitter; tRNA-Arg(CCU), competitive growth, 37 C, YPD
Variants at the floor of the assay were thinned out.
attributeMeasured: yeast fitness
Output: the number by itself.

Could you share which yeast fitness value was measured for C30A G41C ?
0.796

Could you share which yeast fitness value was measured for G25A C31U G38C G48A ?
0.651

Could you share which yeast fitness value was measured for U8C ?
1.03

Could you share which yeast fitness value was measured for C34A U47G C49G C60G ?
0.571

Could you share which yeast fitness value was measured for C62U A69G A70U ?
0.648

Could you share which yeast fitness value was measured for U3C C4G A42G ?
0.57

Could you share which yeast fitness value was measured for U7A A40U ?
0.714

Could you share which yeast fitness value was measured for A45C G48A ?
0.828

Could you share which yeast fitness value was measured for A57C G68A ?
0.701

Could you share which yeast fitness value was measured for A43C C62U A65U ?
0.591

Could you share which yeast fitness value was measured for U3G C5U G39C U47A ?
0.538

Could you share which yeast fitness value was measured for U2C C4U U47A ?
0.525

Could you share which yeast fitness value was measured for U3A C49A ?
0.609

These data points were gathered from the RNAGym collection of RNA variant scans (doi:10.1126/science.aae0568).
